FYI, the data here is from ChEMBL document CHEMBL4888484.

A collection of compounds and their measured % Inhibition
# Tested on: Plasmodium falciparum
# assayMethodText: Primary screen in NF54 nanoGlo assay, in single point, at 2uM, 72h
# Format: functional, Erythrocyte
# reportedConditions: timepoint 72 hour
About 540 (0.36%) of roughly 150,000 compounds showed an effect of 50% or more. The entries come from a sample that favours strong results as a whole.
Report the value in % with no unit label.

Reference set, count: 5
Read off the recorded % Inhibition for `CNC(=O)c1ccc(OC)c(-c2ccc(NCCN3CCOCC3)nc2)c1`
-7

Read off the recorded % Inhibition for `CCOc1cc(CN2CC[S+]([O-])CC2)ccc1OC`
6

Read off the recorded % Inhibition for `COc1ccc(Cl)cc1N(Cc1ccccc1)Cc1ccccc1`
-2

Read off the recorded % Inhibition for `COc1ccc(F)c(-c2cc(N)nc(N(C)C)n2)c1`
-15

Read off the recorded % Inhibition for `CN(CC[C@H]1CCCCO1)Cc1ccc2cc(O)ccc2c1`
-1

Further cases:
Read off the recorded % Inhibition for `COc1ccccc1-c1nnc2c3ccc(Cl)cc3nc(N3CCN(C(=O)c4ccc(C)cc4)CC3)n12`
-13

Read off the recorded % Inhibition for `CCN(C(=O)c1ccccc1Cc1ccc(C)cc1)C1CCOCC1`
-13

Read off the recorded % Inhibition for `CC(C)C(=O)NCCN(C)Cc1ccc(C#N)cc1Br`
-19

Read off the recorded % Inhibition for `CC(=O)c1cc(Br)ccc1NCC(=O)N(C)CCC#N`
-26

Read off the recorded % Inhibition for `CC(C)c1noc(CN2CC[C@H](NC(=O)c3ccccn3)[C@@H](O)C2)n1`
-2

Read off the recorded % Inhibition for `O=C(N[C@H]1CCS(=O)(=O)C1)c1cccc(Oc2cccc(C(F)(F)F)c2)c1`
-25

Read off the recorded % Inhibition for `O=C(Nc1cc(N2CCCS2(=O)=O)ccc1O)c1cccc(Oc2cccc(C(F)(F)F)c2)c1`
99

Read off the recorded % Inhibition for `Cc1noc(C)c1CN1C[C@@H]2Oc3cc(F)ccc3C(=O)N(C)[C@@H]2C1`
91

Read off the recorded % Inhibition for `O=C(Nc1cccnc1)c1cccc(Oc2cccc(C(F)(F)F)c2)c1`
-13

Read off the recorded % Inhibition for `Cn1cncc1CCN1CCC[C@H](NC(=O)OC(C)(C)C)C1`
-12

Read off the recorded % Inhibition for `Cc1ccc(S(=O)(=O)c2cn(CC(=O)Nc3ccc(C)c(C)c3)c3nc(C)ccc3c2=O)cc1`
-12

Read off the recorded % Inhibition for `COc1ccccc1N1CCN(C(=O)c2nnn(-c3ccccc3Cl)c2-c2cccnc2)CC1`
50

Read off the recorded % Inhibition for `CN1C(=O)c2ccccc2O[C@H]2CN(Cc3cc(-c4ccccc4)no3)C[C@H]21`
4

====

# Test system: Plasmodium falciparum
# assayMethodText: Primary screen in NF54 nanoGlo assay, in single point, at 2uM, 72h; a lower Z score goes with more inhibition
# Type: functional, Erythrocyte
# reportedConditions: timepoint 72 hour
About 540 (0.36%) of roughly 150,000 compounds showed an effect of 50% or more. The entries come from a sample that favours strong results as a whole.
// F strictly below 2 in Z score; T otherwise

Some entries whose results are on file:
Confirm if Z score reported for the compound `N#C[C@H]1C(=O)c2ccccc2N(Cc2ccccc2)C1=O` is 2 or above.
F

Confirm if Z score reported for the compound `CC(C)CCn1nnnc1[C@]1(N(C)C)CCCN(C(=O)CN2CCOCC2)C1` is 2 or above.
F

Confirm if Z score reported for the compound `Cc1ccc[n+](Cc2ccc3ccccc3n2)c1` is 2 or above.
F

Confirm if Z score reported for the compound `C[C@H](O)CN1CCN(Cc2cn3ccccc3c2C#N)CC1` is 2 or above.
T

Further cases:
Confirm if Z score reported for the compound `COc1cc(-c2n[nH]cc2CN(C[C@H]2CCC(=O)N2)C(C)C)cc(OC)c1OC` is 2 or above.
F

Confirm if Z score reported for the compound `O=C(O)[C@H]1CCN(C(=O)Cn2c(COc3ccccc3)nc3ccccc32)C1` is 2 or above.
F

Confirm if Z score reported for the compound `Cc1ccc(S(=O)(=O)N2CCN(C(=O)NCc3nccn3C)CC2)cc1` is 2 or above.
T

Confirm if Z score reported for the compound `Cc1cc(O)nc2ccc(NC(=O)c3cccc(F)c3)cc12` is 2 or above.
F
